Taken from patent US7160888B2.

Quick list: melting point per entry.

Below, each entry is followed by its recorded melting point result.
> print(dat)
                                   compound  readout.value
1  CC(=O)c1c(Cl)cccc1N1CCN(CCCCOc2ccc3c(n2)NC(=O)CC3)CC1         115 °C
2  Cc1c(C)c2ccc(OCCCCN3CCN(c4cccc(Cl)c4Cl)CC3)nc2[nH]c1=O  161 to 163 °C
3  Cc1cc2c(nc1OCCCCN1CCN(c3cccc(Cl)c3Cl)CC1)NC(=O)CC2 [Example E1]  138 to 139 °C

Task item: Fill in reported melting point for this entry: O=C1CCCc2c1cccc2N1CCN(CCCCOc2ccc3ccc(=O)[nH]c3n2)CC1
Reply: 158 to 160 °C

----------
Target: D2 receptor (Homo sapiens)
Experiment: [3H]Thymidine uptake assay for D2 intrinsic activity
Assay type: cell-based
Conditions: Table 1; test compound 1 μM; 1 μM Quinpirole = 100% intrinsic activity
Quick list: Emax at 1 µM per entry.
Quick reminder: number only, in %, skip the unit.

Below, each entry is followed by its recorded Emax at 1 µM result.
> print(dat)
                              record.smiles  test.readout  unit.symbol  readout.value
1  O=C1CCc2cnc(OCCCCN3CCN(c4cccc5c4CCC5)CC3)cc2N1  Emax at 1 µM            %             23
2  CCc1c(Cl)cccc1N1CCN(CCCCOc2ccc3ccc(=O)[nH]c3n2)CC1  Emax at 1 µM            %             22
3  O=C1CCc2ccc(OCCCCN3CCN(c4cc(Cl)ccc4Cl)CC3)nc2N1  Emax at 1 µM            %             11

Task item: Fill in reported Emax at 1 µM for this entry: CC1(C)CC(=O)Nc2nc(OCCCCN3CCN(c4cccc(C5CC5)n4)CC3)ccc21
Reply: 42

----------
Biological target: D2 receptor (Homo sapiens, UniProt P14416)
Sequence (P14416 whole entry): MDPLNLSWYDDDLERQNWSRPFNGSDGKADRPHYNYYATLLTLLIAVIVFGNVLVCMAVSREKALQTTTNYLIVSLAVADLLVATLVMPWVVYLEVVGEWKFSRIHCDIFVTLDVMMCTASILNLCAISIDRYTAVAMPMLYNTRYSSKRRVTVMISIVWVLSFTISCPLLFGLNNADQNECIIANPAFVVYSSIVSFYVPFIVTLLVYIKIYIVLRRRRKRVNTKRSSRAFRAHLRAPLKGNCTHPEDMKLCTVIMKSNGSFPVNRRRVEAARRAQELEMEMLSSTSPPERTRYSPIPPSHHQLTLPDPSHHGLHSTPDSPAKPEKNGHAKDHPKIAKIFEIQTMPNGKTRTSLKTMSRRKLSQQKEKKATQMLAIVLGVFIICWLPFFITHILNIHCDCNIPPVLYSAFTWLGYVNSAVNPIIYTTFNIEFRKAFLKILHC
Test: [3H]Thymidine uptake assay for D2 intrinsic activity
Assay type: cell-based
Settings: Table 1; test compound 1 μM; 1 μM Quinpirole = 100% intrinsic activity
Quick list: Emax at 1 µM per entry.
Quick reminder: number only, in %, skip the unit.

> print(dat)
                                   molecule  test.readout  readout.value
1  O=C1CCc2ccc(OCCCCN3CCN(c4ccc(F)c(Cl)c4Cl)CC3)nc2N1  Emax at 1 µM              7

Task item: Fill in reported Emax at 1 µM for this entry: O=C1COc2ccc(CCCCCN3CCN(c4cccc5c4CCCC5)CC3)nc2N1
Reply: 6

Task item: Fill in reported Emax at 1 µM for this entry: CC(C)Oc1ccc(Cl)cc1N1CCN(CCCCOc2ccc3ccc(=O)[nH]c3n2)CC1
Reply: 23

Task item: Fill in reported Emax at 1 µM for this entry: CC1Cc2ccc(OCCCCN3CCN(c4cccc(Cl)c4Cl)CC3)nc2NC1=O (single isomer, unassigned)
Reply: 17

Task item: Fill in reported Emax at 1 µM for this entry: Cc1c(F)ccc(N2CCN(CCCCOc3ccc4c(n3)NC(=O)CC4)CC2)c1Cl
Reply: 4

Task item: Fill in reported Emax at 1 µM for this entry: O=C1CCc2cnc(OCCCCN3CCN(c4cccc5ccccc45)CC3)cc2N1
Reply: 33

Task item: Fill in reported Emax at 1 µM for this entry: Cc1ccc(Cl)cc1N1CCN(CCCCOc2ccc3c(n2)NC(=O)CC3)CC1
Reply: 7

Task item: Fill in reported Emax at 1 µM for this entry: O=C1CCc2cc(Br)c(OCCCCN3CCN(c4cccc(Cl)c4Cl)CC3)nc2N1
Reply: 19

----------
Target: D2 receptor (Homo sapiens, UniProt P14416)
Experiment: [3H]Thymidine uptake assay for D2 intrinsic activity
Type: cell-based
Details: Table 1; test compound 1 μM; 1 μM Quinpirole = 100% intrinsic activity
Tag: 1.0 if measured Emax at 1 µM is not below 20%, 0.0 if it is.

> print(dat)
                              record.smiles                         target.under.test  class.assignment
1  O=c1[nH]c2nc(OCCCCN3CCN(c4cccc5ccccc45)CC3)ccc2cc1F  D2 receptor (Homo sapiens, UniProt P14416)               1.0
2  CC(=O)c1ccc2c(N3CCN(CCCCOc4ccc5c(n4)NC(=O)CC5)CC3)cccc2c1  D2 receptor (Homo sapiens, UniProt P14416)               1.0
3  CC(C)Oc1ccccc1N1CCN(CCCCOc2ccc3c(n2)NC(=O)CC3)CC1  D2 receptor (Homo sapiens, UniProt P14416)               1.0
4  O=c1ccc2ccc(OCCCCN3CCN(c4cccc5c(Cl)cccc45)CC3)nc2[nH]1  D2 receptor (Homo sapiens, UniProt P14416)               1.0
5  O=c1ccc2ccc(OCCCCN3CCN(c4ccc(F)cc4Cl)CC3)nc2[nH]1  D2 receptor (Homo sapiens, UniProt P14416)               0.0
6  COc1c(Cl)cccc1N1CCN(CCCCOc2ccc3c(n2)NC(=O)CC3)CC1  D2 receptor (Homo sapiens, UniProt P14416)               0.0

Task item: Form field: Emax at 1 µM at least 20%? Entry: O=c1[nH]c2nc(OCCCCN3CCN(c4cccc5ccccc45)CC3)ccc2cc1CC(F)(F)F
Reply: 1.0

Task item: Form field: Emax at 1 µM at least 20%? Entry: Cc1cc2ccc(OCCCCN3CCN(c4cccc(Cl)c4Cl)CC3)nc2[nH]c1=O
Reply: 0.0

----------
Molecular target: D2 receptor (Homo sapiens)
Assay: [3H]Thymidine uptake assay for D2 intrinsic activity
Type: cell-based
Details: Table 1; test compound 1 μM; 1 μM Quinpirole = 100% intrinsic activity
Labelling field: enter t if recorded Emax at 1 µM is less than 20%. Enter f if it equals or exceeds that cut-off.

The following compounds have reported results that may help.
> print(dat)
                              record.smiles  class.assignment
1  Cc1c(F)ccc(N2CCN(CCCCOc3ccc4ccc(=O)[nH]c4n3)CC2)c1Cl                 t
2  Cc1cc(OCCCCN2CCN(c3cccc(Cl)c3Cl)CC2)nc2c1CCC(=O)N2                 f
3  O=c1ccc2ccc(OCCN3CCN(c4cccc(Cl)c4Cl)CC3)nc2[nH]1                 t
4  O=C1CCc2cnc(OCCCCN3CCN(c4cccc5ccccc45)CC3)c(Br)c2N1                 f
5  O=C1CCc2ccc(OCCCCN3CCN(c4cc(F)cc5c4CCCC5)CC3)nc2N1                 t

Task item: Hi there! Is Emax at 1 µM for O=c1ccc2ccc(OCCCCN3CCN(c4cccc(C(F)(F)F)c4)CC3)nc2[nH]1 below 20%, do you know?
Reply: t

Task item: Hi there! Is Emax at 1 µM for O=C1CCc2ccc(CCCCCN3CCN(c4cccc(C5CC5)n4)CC3)nc2N1 below 20%, do you know?
Reply: f

Task item: Hi there! Is Emax at 1 µM for O=C1NCc2ccc(OCCCCN3CCN(c4cccc(Cl)c4Cl)CC3)nc2N1 below 20%, do you know?
Reply: t

Task item: Hi there! Is Emax at 1 µM for O=C1CCc2ccc(OCCCCN3CCN(c4cccc5ccc(Cl)cc45)CC3)nc2N1 below 20%, do you know?
Reply: f

----------
Target: D2 receptor (Homo sapiens)
Assay: [3H]Thymidine uptake assay for D2 intrinsic activity
Format: cell-based
Conditions: Table 1; test compound 1 μM; 1 μM Quinpirole = 100% intrinsic activity
Test readout: Emax at 1 µM (%)
Quick reminder: number only, in %, skip the unit.

> print(dat)
                                   compound           target.under.test  test.readout  readout.value
1  O=c1ccc2ccc(OCCCCN3CCN(c4cccc5cccc(Cl)c45)CC3)nc2[nH]1 [Example B59]  D2 receptor (Homo sapiens)  Emax at 1 µM             37
2  O=C1CCc2cc(F)c(OCCCCN3CCN(c4cccc5c4CCC5)CC3)nc2N1 [Example E5]  D2 receptor (Homo sapiens)  Emax at 1 µM             21
3  Cc1c(C)c2ccc(CCCCCN3CCN(c4cccc(Cl)c4Cl)CC3)nc2[nH]c1=O [Example D8]  D2 receptor (Homo sapiens)  Emax at 1 µM              8

// switching to the query compound
Task item: Fill in reported Emax at 1 µM for this entry: O=c1ccc2ccc(OCCCCN3CCN(c4ccc(F)c(Cl)c4Cl)CC3)nc2[nH]1 [Example B24]
Reply: 10

----------
Biological target: D2 receptor (Homo sapiens)
Test: [3H]Thymidine uptake assay for D2 intrinsic activity
Assay type: cell-based
Details: Table 2; test compound 1 μM; 1 μM Quinpirole = 100% intrinsic activity
Labelling field: enter class 1 if recorded Emax at 1 µM is less than 20%. Enter class 0 if it equals or exceeds that cut-off.

> print(dat)
                                    compound  class.assignment
 1  CCN1CCCc2c1cccc2N1CCN(CCCCOc2ccc3ccc(=O)[nH]c3n2)CC1           class 0
 2  O=c1ccc2ccc(OCCCCN3CCN(c4cccc5c4OCCO5)CC3)nc2[nH]1           class 0
 3  O=c1ccc2cnc(OCCCCN3CCN(c4cccc5c4OCC5)CC3)nc2[nH]1           class 1
 4  O=C1CCc2cc(F)c(OCCCCN3CCN(c4cccc5cccnc45)CC3)nc2N1 [Example D1′]           class 0
 5  O=c1ccc2ccc(OCCCCN3CCN(c4cccc5c4OCCCO5)CC3)nc2[nH]1           class 1
 6  CCN1CCCc2c1cccc2N1CCN(CCCCOc2ccc3c(n2)NC(=O)CC3)CC1           class 1
 7  CC1C=Cc2cccc(N3CCN(CCCCOc4ccc5ccc(=O)[nH]c5n4)CC3)c2O1 (stereo not drawn)           class 0
 8  O=c1ccc2cnc(OCCCCN3CCN(c4cccc5c4OCCC5)CC3)cc2[nH]1           class 0
 9  O=C1CCc2cnc(OCCCCN3CCN(c4cccc5c4OCC5)CC3)cc2N1           class 1
10  O=C1CCc2ccc(OCCCCN3CCN(c4cccc5sccc45)CC3)nc2N1           class 0

Task item: Hi there! Is Emax at 1 µM for Cn1ccc2c(N3CCN(CCCCOc4ccc5c(n4)NC(=O)CC5)CC3)cccc21 below 20%, do you know?
Reply: class 1

Task item: Hi there! Is Emax at 1 µM for O=c1ccc2ccc(OCCCCN3CCN(c4cccc5c4CCO5)CC3)nc2[nH]1 below 20%, do you know?
Reply: class 0

Task item: Hi there! Is Emax at 1 µM for O=C1CCc2cnc(OCCCCN3CCN(c4cccc5c4OCCO5)CC3)cc2N1 below 20%, do you know?
Reply: class 1

Task item: Hi there! Is Emax at 1 µM for O=C1CCc2ccc(OCCCCN3CCN(c4cccc5ccncc45)CC3)nc2N1 below 20%, do you know?
Reply: class 0

Task item: Hi there! Is Emax at 1 µM for CN1CCCc2c1cccc2N1CCN(CCCCOc2ccc3c(n2)NC(=O)CC3)CC1 below 20%, do you know?
Reply: class 0

Task item: Hi there! Is Emax at 1 µM for O=C1CCc2ccc(OCCCCN3CCN(c4cccc5c4OC(F)(F)C(F)(F)O5)CC3)nc2N1 below 20%, do you know?
Reply: class 1

Task item: Hi there! Is Emax at 1 µM for O=C1CCc2ccc(OCCCCN3CCN(c4cccc5c4NC(=O)CC5)CC3)nc2N1 below 20%, do you know?
Reply: class 0

Task item: Hi there! Is Emax at 1 µM for O=C1CCc2ccc(OCCCCN3CCN(c4cccc5c4OCCC5)CC3)nc2N1 below 20%, do you know?
Reply: class 1

Task item: Hi there! Is Emax at 1 µM for O=C1CCc2cnc(OCCCCN3CCN(c4cccc5c4OC(F)(F)C(F)(F)O5)CC3)cc2N1 below 20%, do you know?
Reply: class 0

Task item: Hi there! Is Emax at 1 µM for O=C1CCc2ccc(OCCCCN3CCN(c4cccc5c4OCCO5)CC3)nc2N1 below 20%, do you know?
Reply: class 1

Task item: Hi there! Is Emax at 1 µM for O=C1CCc2ccc(OCCCCN3CCN(c4cccc5c4CCCO5)CC3)nc2N1 below 20%, do you know?
Reply: class 1
